Attribution: the RNAGym collection of RNA variant scans (doi:10.1021/acssynbio.7b00057)

B1: Pistol ribozyme (parent)
chain: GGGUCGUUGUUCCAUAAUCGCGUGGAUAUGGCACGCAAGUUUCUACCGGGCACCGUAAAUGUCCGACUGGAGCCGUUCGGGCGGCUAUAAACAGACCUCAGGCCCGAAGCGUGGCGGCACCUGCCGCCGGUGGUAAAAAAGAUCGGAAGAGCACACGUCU

variants of: B1; assay: aptazyme ON/OFF ratio, guanine; higher = stronger switching; co-transcriptional cleavage with and without guanine
OBSERVATION TYPE: aptazyme ON/OFF ratio
// return a plain number; no unit text

Need aptazyme ON/OFF ratio, item U8G C12A C13A
1.25
